Each entry below carries its recorded log10(solubility).
# Assay procedure: Solubility in simulated intestinal fluids (FaSSIF/FeSSIF)
# Conditions used: fasted state simulated intestinal fluid (FaSSIF), 25 °C, fassif, thermodynamic from solid
Metric name: log10(solubility) (log10 of the value in µg/mL)

{"Smiles str": "CC(C)(C#Cc1ccc(-c2ccc(Cl)c3c(N(C(=O)N[C@@H](CO)C(=O)O)S(C)(=O)=O)nn(CC(F)(F)F)c23)c([C@H](Cc2cc(F)cc(F)c2)NC(=O)Cn2nc(C(F)(F)F)c3c2C(F)(F)[C@@H]2C[C@H]32)n1)S(C)(=O)=O", "log10(solubility)": 2.91}
{"Smiles str": "CC(C)(C#Cc1ccc(-c2ccc(Cl)c3c(N(C(=O)N[C@](C)(CO)CC(=O)O)S(C)(=O)=O)nn(CC(F)(F)F)c23)c([C@H](Cc2cc(F)cc(F)c2)NC(=O)Cn2nc(C(F)(F)F)c3c2C(F)(F)[C@@H]2C[C@H]32)n1)S(C)(=O)=O", "log10(solubility)": 2.63}
{"Smiles str": "CC(C)(C#Cc1ccc(-c2ccc(Cl)c3c(N(C(=O)OC(CC(=O)O)CC(=O)O)S(C)(=O)=O)nn(CC(F)(F)F)c23)c([C@H](Cc2cc(F)cc(F)c2)NC(=O)Cn2nc(C(F)(F)F)c3c2C(F)(F)[C@@H]2C[C@H]32)n1)S(C)(=O)=O", "log10(solubility)": 2.79}
{"Smiles str": "CC(C)(C#Cc1ccc(-c2ccc(Cl)c3c(N(COC(=O)CN)S(C)(=O)=O)nn(CC(F)(F)F)c23)c([C@H](Cc2cc(F)cc(F)c2)NC(=O)Cn2nc(C(F)(F)F)c3c2C(F)(F)[C@@H]2C[C@H]32)n1)S(C)(=O)=O", "log10(solubility)": 0.78}
{"Smiles str": "CC(C)(C#Cc1ccc(-c2ccc(Cl)c3c(N(C(=O)N(CCCC(=O)O)CCNC(=O)OCOP(=O)(O)O)S(C)(=O)=O)nn(CC(F)(F)F)c23)c([C@H](Cc2cc(F)cc(F)c2)NC(=O)Cn2nc(C(F)(F)F)c3c2C(F)(F)[C@@H]2C[C@H]32)n1)S(C)(=O)=O", "log10(solubility)": 3.43}
{"Smiles str": "CC(C)(C#Cc1ccc(-c2ccc(Cl)c3c(N(C(=O)OCCC(C(=O)O)C(=O)O)S(C)(=O)=O)nn(CC(F)(F)F)c23)c([C@H](Cc2cc(F)cc(F)c2)NC(=O)Cn2nc(C(F)(F)F)c3c2C(F)(F)[C@@H]2C[C@H]32)n1)S(C)(=O)=O", "log10(solubility)": 1.32}
{"Smiles str": "CC(C)(C#Cc1ccc(-c2ccc(Cl)c3c(N(COC(=O)C(=O)O)S(C)(=O)=O)nn(CC(F)(F)F)c23)c([C@H](Cc2cc(F)cc(F)c2)NC(=O)Cn2nc(C(F)(F)F)c3c2C(F)(F)[C@@H]2C[C@H]32)n1)S(C)(=O)=O", "log10(solubility)": 2.65}
{"Smiles str": "CC(C)(C#Cc1ccc(-c2ccc(Cl)c3c(N(C(=O)N[C@@H](COC(=O)C(=O)O)C(=O)O)S(C)(=O)=O)nn(CC(F)(F)F)c23)c([C@H](Cc2cc(F)cc(F)c2)NC(=O)Cn2nc(C(F)(F)F)c3c2C(F)(F)[C@@H]2C[C@H]32)n1)S(C)(=O)=O", "log10(solubility)": 2.56}
{"Smiles str": "CC(C)(C#Cc1ccc(-c2ccc(Cl)c3c(N(C(=O)C(=O)O)S(C)(=O)=O)nn(CC(F)(F)F)c23)c([C@H](Cc2cc(F)cc(F)c2)NC(=O)Cn2nc(C(F)(F)F)c3c2C(F)(F)[C@@H]2C[C@H]32)n1)S(C)(=O)=O", "log10(solubility)": 2.85}
{"Smiles str": "CC(C)(C#Cc1ccc(-c2ccc(Cl)c3c(N(C(=O)OCCNC(=O)C(=O)O)S(C)(=O)=O)nn(CC(F)(F)F)c23)c([C@H](Cc2cc(F)cc(F)c2)NC(=O)Cn2nc(C(F)(F)F)c3c2C(F)(F)[C@@H]2C[C@H]32)n1)S(C)(=O)=O", "log10(solubility)": 0.85}
{"Smiles str": "CC(C)(C#Cc1ccc(-c2ccc(Cl)c3c(N(C(=O)OCC(=O)OCOP(=O)(O)O)S(C)(=O)=O)nn(CC(F)(F)F)c23)c([C@H](Cc2cc(F)cc(F)c2)NC(=O)Cn2nc(C(F)(F)F)c3c2C(F)(F)[C@@H]2C[C@H]32)n1)S(C)(=O)=O", "log10(solubility)": 2.68}
